Below, each entry is listed alongside its reported IC50.
- tested.system: full-length beta-Catenin (Uniprot ID P35222) (Homo sapiens, UniProt P35222)
- Construct: 10 nM full-length beta-Catenin (Uniprot ID P35222)
- Sequence (P35222 1-781): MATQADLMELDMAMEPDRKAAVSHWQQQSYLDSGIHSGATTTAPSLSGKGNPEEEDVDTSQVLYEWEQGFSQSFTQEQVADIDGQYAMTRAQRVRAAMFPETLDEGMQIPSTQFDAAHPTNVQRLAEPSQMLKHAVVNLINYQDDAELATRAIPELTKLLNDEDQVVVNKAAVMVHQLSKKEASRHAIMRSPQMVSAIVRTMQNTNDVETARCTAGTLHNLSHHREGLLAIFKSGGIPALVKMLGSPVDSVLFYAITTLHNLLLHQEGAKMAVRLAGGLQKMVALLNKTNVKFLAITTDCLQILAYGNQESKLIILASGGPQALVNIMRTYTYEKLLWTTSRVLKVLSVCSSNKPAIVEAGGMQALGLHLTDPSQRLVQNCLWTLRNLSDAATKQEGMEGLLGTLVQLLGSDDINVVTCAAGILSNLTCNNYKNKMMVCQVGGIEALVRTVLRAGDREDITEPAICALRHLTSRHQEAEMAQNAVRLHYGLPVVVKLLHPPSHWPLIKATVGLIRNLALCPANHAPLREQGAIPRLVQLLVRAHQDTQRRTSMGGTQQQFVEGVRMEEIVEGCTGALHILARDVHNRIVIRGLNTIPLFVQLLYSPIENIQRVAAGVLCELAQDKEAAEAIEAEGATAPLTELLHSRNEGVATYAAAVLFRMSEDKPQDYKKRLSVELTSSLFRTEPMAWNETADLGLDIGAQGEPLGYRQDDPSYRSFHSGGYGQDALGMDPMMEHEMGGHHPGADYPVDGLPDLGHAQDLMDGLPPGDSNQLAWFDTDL
- method: Fluorescence polarization IC50 (beta-catenin / 5FAM-TCF4 10-53 competition)
- Type: binding
- condition.details: fluorescence polarization; read-out: beta-Catenin FP IC50
Please respond with the number in nM and leave the unit unwritten.

# example entries with known answers
compound="CC(=O)N1CCC[C@]12CC=CCCCC1(CCCC=CCCCOC(=O)N3CC[C@@](C(=O)N[C@@H](Cc4ccccc4C(F)(F)F)C(=O)N[C@@H](Cc4csc5ccccc45)C(=O)N[C@@H](CO)C(N)=O)(C3)NC(=O)[C@H](CC(C)C)NC(=O)[C@H](Cc3ccccc3)NC(=O)[C@H](C)NC(=O)[C@H](C)NC(=O)[C@H](Cn3cc(CCC(=O)O)nn3)NC(=O)[C@H](CC(=O)O)NC1=O)NC(=O)[C@H](CC(C)(C)C)NC(=O)[C@H](CC(=O)O)NC2=O (stereo partly drawn) [I-2370]" tested_system="full-length beta-Catenin (Uniprot ID P35222) (Homo sapiens, UniProt P35222)" observation_type=IC50 result_value=12
compound="CC(=O)N1CCC[C@]12CC=CCCCC1(CCCC=CCCCOC(=O)N3CC[C@@](C(=O)N[C@@H](Cc4ccccc4C(F)(F)F)C(=O)N[C@@H](Cc4csc5ccccc45)C(=O)N[C@@H](C)C(N)=O)(C3)NC(=O)[C@H](CC(C)C)NC(=O)[C@H](Cc3ccccc3)NC(=O)[C@H](C)NC(=O)[C@H](CCC(N)=O)NC(=O)[C@H](Cc3cc(C(=O)O)cc(C(C)C)c3)NC(=O)[C@H](CC(=O)O)NC1=O)NC(=O)[C@H](CC(C)(C)C)NC(=O)[C@H](CC(=O)O)NC2=O (stereo partly drawn) [I-2431]" tested_system="full-length beta-Catenin (Uniprot ID P35222) (Homo sapiens, UniProt P35222)" observation_type=IC50 result_value=33

Query: Returns the measured IC50 for the input compound. Input: CC(=O)N1CCC[C@]12CC=CCCCC1(CCCC=CCCCOC(=O)N3CC[C@@](C(=O)N[C@@H](Cc4ccsc4)C(=O)N[C@@H](Cc4csc5ccccc45)C(=O)N[C@@H](CCC(N)=O)C(N)=O)(C3)NC(=O)[C@H](CC(C)C)NC(=O)[C@H](Cc3ccccc3)NC(=O)[C@H](C)NC(=O)[C@H](C)NC(=O)[C@H](CCN(CCCC(F)(F)F)CC(=O)O)NC(=O)[C@H](CC(=O)O)NC1=O)NC(=O)[C@H](CC(C)(C)C)NC(=O)[C@H](CC(=O)O)NC2=O (stereo partly drawn) [I-1837]
Reply: 19
